Test: Plasma pharmacokinetics and bioavailability after intravenous and oral administration
Type: in vivo, cynomolgus monkeys
Conditions: both sexes, cynomolgus monkey, plasma; intravenous 1 mg/kg, monkeys

[
  {
    "Molecule": "COC(=O)NCCCn1nc([C@@H](C)N(C(=O)[C@H]2CNCCO2)C2CC2)c2ccc(C)nc21 [compound of Formula I]",
    "clearance / L/h/kg": 1.96
  }
]

----------
Test: Plasma pharmacokinetics and bioavailability after intravenous and oral administration
Type: in vivo, cynomolgus monkeys
Conditions: both sexes, cynomolgus monkey, plasma; Monkey, 1 mg/kg iv

[
  {
    "Smiles Notation": "COC(=O)NCCCn1nc([C@@H](C)N(C(=O)[C@H]2CNCCO2)C2CC2)c2ccc(C)nc21",
    "MRT (min)": 58.2
  }
]
